Molecular target: recombinant HCV NS3 protease type 1b (Hepatitis C virus genotype 1b)
Construct: recombinant HCV NS3 protease (amino acid 1027 to 1206) was cloned in the pET11d bacterial expression vector
Sequence (P26663 1027-1206): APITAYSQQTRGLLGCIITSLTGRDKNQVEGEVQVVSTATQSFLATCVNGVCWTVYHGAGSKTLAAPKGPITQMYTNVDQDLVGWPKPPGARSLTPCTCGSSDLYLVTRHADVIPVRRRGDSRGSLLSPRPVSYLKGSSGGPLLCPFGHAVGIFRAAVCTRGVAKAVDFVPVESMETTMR
Experiment: Recombinant HCV NS3 protease radiometric assay
Where a SMILES comes first, the peptide text is derived from it. [ ]: non-standard residue; d: D form. The star is where a group is joined. Hyp = O=C(O)[C@@H]1C[C@@H](O)CN1; Chg = N[C@H](C(=O)O)C1CCCCC1; Tle = CC(C)(C)[C@H](N)C(=O)O; Nva = CCC[C@H](N)C(=O)O; Meb = Cc1ccc(C*)cc1
Measured IC50, listed per entry for reference.
Report the value in µM with no unit label.

Here is how some molecules turned out for IC50.
1) CC(=O)N[C@@H](CC(=O)O)C(=O)N[C@@H](CC(=O)O)C(=O)N[C@H](C(=O)N[C@H](C(=O)N1CCC[C@H]1C(=O)N[C@@H](CS)C(=O)O)C(C)C)C1CCCCC1 [compound 110] (Ac-DD[Chg]VPC-OH; C-terminus assumed) = 24
2) CCC[C@H](NC(=O)[C@@H]1C[C@@H](OCc2ccc(C)cc2)CN1C(=O)[C@@H](NC(=O)[C@@H](NC(=O)[C@H](CC(=O)O)NC(=O)[C@H](CC(=O)O)NC(C)=O)[C@@H](C)CC)C(C)C)C(=O)O [compound 206] (Ac-DDIV[Hyp](Meb)[Nva]-OH) = 6.4

Measured IC50 of CCC[C@H](NC(=O)[C@@H]1CCCN1C(=O)[C@@H](NC(=O)[C@@H](NC(=O)[C@@H](NC(=O)[C@H](CC(=O)O)NC(C)=O)C(C)(C)C)[C@@H](C)CC)C(C)C)C(=O)O [compound 129] (Ac-D[Tle]IVP[Nva]-OH; C-terminus assumed) : 270

Lab note: CC[C@H](C)[C@H](NC(=O)[C@H](CC(=O)O)NC(=O)[C@H](CC(=O)O)NC(C)=O)C(=O)N[C@H](C(=O)N1CCC[C@H]1C(=O)N[C@@H](CS)C(=O)O)C1CCCCC1 [compound 114] (Ac-DDI[Chg]PC-OH; C-terminus assumed) gave IC50 of 50

* * *

Molecular target: HCV NS3 protease type 1b/NS4A cofactor peptide (Hepatitis C virus genotype 1b)
Construct: recombinant HCV NS3 protease (amino acid 1027 to 1206) was cloned in the pET11d bacterial expression vector; made in house; host or cells: E. coli BL21(DE3)pLysS
Sequence (P26663 1027-1206, other chains not shown): as the sequence (P26663 1027-1206) above
Test: Recombinant HCV NS3 protease/NS4A cofactor peptide radiometric assay
Format: biochemical, HCV genotype 1b
Details: Table 2, unmarked values: NS3 protease/NS4A cofactor peptide radiometric assay; read-out: IC50
*1 amine or outer side, *2 acyl side, *3 side chain or, on linkers, in order; H or OH if unused. Where a SMILES comes first, the peptide text is derived from it. [ ]: non-standard residue; d: D form. The star is where a group is joined. CH2(1-naphthyl) = c1ccc2c(C*)cccc2c1; Glutaryl = O=C(CCCC(=O)[*:2])[*:1]; Hyp = O=C(O)[C@@H]1C[C@@H](O)CN1; NMeI = CC[C@H](C)[C@H](NC)C(=O)O; Suc = O=C(CCC(=O)[*:2])[*:1]; Nva = CCC[C@H](N)C(=O)O
measured-endpoint: IC50 (µM)
# output: bare number, implied unit µM

Some entries whose results are on file:
1) CCC[C@H](NC(=O)[C@@H]1CCCN1C(=O)[C@@H](NC(=O)[C@@H](NC(=O)[C@H](CC(=O)O)NC(=O)[C@H](CC(=O)O)NC(C)=O)[C@@H](C)CC)C(C)C)C(=O)O (single isomer, unassigned) = 17.5
2) CCC[C@H](NC(=O)[C@@H]1C[C@@H](OCc2cccc3ccccc23)CN1C(=O)[C@@H](NC(=O)[C@@H](NC(=O)CCCC(=O)O)[C@@H](C)CC)C(C)C)C(=O)O [compound 222] (Glutaryl-IV[Hyp](CH2(1-naphthyl))[Nva]-OH) = 20
3) CC(=O)N[C@H](C(=O)N[C@H](C(=O)N1C[C@H](Oc2ccccc2Br)C[C@H]1C(=O)NC1(C(=O)O)CC1)C(C)C)C1CCCCC1 = 27

// IC50 value for CCC[C@H](NC(=O)[C@@H]1C[C@@H](OCc2cccc3ccccc23)CN1C(=O)[C@@H](NC(=O)[C@H]([C@@H](C)CC)N(C)C(=O)CCC(=O)O)C(C)C)C(=O)O [compound 220] (Suc-[NMeI]V[Hyp](CH2(1-naphthyl))[Nva]-OH) : 31

IC50 measured on "CC(=O)N[C@H](C(=O)N[C@H](C(=O)N1C[C@H](Oc2ccc(I)cc2)C[C@H]1C(=O)NC1(C(=O)O)CC1)C(C)C)C1CCCCC1" = 9.7
